testedSystem: IRAK4 enzyme (Homo sapiens (Human), UniProt Q9NWZ3)
Sequence (Q9NWZ3 whole entry): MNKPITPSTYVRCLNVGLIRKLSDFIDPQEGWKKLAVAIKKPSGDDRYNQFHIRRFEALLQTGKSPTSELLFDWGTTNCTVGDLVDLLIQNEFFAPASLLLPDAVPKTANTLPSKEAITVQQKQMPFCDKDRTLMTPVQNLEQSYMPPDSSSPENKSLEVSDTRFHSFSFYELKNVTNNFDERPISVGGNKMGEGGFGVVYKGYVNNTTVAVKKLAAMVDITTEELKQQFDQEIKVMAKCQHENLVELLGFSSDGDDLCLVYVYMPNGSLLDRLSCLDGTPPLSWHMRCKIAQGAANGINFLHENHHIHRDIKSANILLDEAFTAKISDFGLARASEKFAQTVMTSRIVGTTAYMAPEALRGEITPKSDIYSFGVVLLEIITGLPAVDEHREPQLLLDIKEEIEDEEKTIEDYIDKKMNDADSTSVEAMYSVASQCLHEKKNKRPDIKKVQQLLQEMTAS
experimentNotes: biochemical
Type: biochemical
condition: IRAK4 enzyme, TR-FRET (HTRF), 500 μM ATP
Readings of IC50 for the listed compounds
Report only the number, with the unit nM understood.

Solved cases (3 shown):
[[record]]
compound = "COC(=O)NC(C)(C)CCCNc1cc(-c2ccc3cc(C#N)cnn23)ncc1C(=O)NC[C@@H](F)C(C)(C)O"
testedsystem = "IRAK4 enzyme (Homo sapiens (Human), UniProt Q9NWZ3)"
propertyname = "IC50"
recordedmeasurement = 4

[[record]]
compound = "CNC(=O)c1cnc(-c2ccc3cc(C#N)cnn23)cc1N[C@H]1CC[C@H](C(=O)NC)C1"
testedsystem = "IRAK4 enzyme (Homo sapiens (Human), UniProt Q9NWZ3)"
propertyname = "IC50"
recordedmeasurement = 4

[[record]]
compound = "CC(C)(O)[C@H](F)CNC(=O)c1cnc(-c2ccc3cc(C#N)cnn23)cc1NC1CCC(S(C)(=O)=O)CC1 (stereo partly drawn)"
testedsystem = "IRAK4 enzyme (Homo sapiens (Human), UniProt Q9NWZ3)"
propertyname = "IC50"
recordedmeasurement = 14


Q: So what's the measured IC50 for this one? `N#Cc1cnn2c(-c3cc(N[C@H]4CCC[C@@H](O)C4)c(C(=O)NC4CC4)cn3)ccc2c1`
Result: 9

Q: So what's the measured IC50 for this one? `CN(C)C(=O)c1ccc(Nc2cc(-c3ccc4cc(C#N)cnn34)ncc2C(=O)NC[C@@H](F)C(C)(C)O)cn1`
Result: 2

Q: So what's the measured IC50 for this one? `CC(C)(O)[C@H](F)CNC(=O)c1cnc(-c2ccc3cc(C#N)cnn23)cc1-c1ccc2cc(C#N)cnn12`
Result: 35

Q: So what's the measured IC50 for this one? `CNC(=O)c1cnc(-c2ccc3cc(C#N)cnn23)cc1NC12CCC(NC(=O)OC)(CC1)CC2`
Result: 1

Q: So what's the measured IC50 for this one? `CC(C)(O)[C@H](F)CNC(=O)c1cnc(-c2ccc3cc(C#N)cnn23)cc1N[C@H]1C[C@H](Cn2cc(C3CC3)nn2)C1`
Result: 1

Q: So what's the measured IC50 for this one? CC(CCS(C)(=O)=O)Nc1cc(-c2ccc3cc(C#N)cnn23)ncc1C(=O)NC[C@@H](F)C(C)(C)O (stereo partly drawn)
Result: 2

Q: So what's the measured IC50 for this one? CC(C)(O)[C@H](F)CNC(=O)c1cnc(-c2ccc3cc(C#N)cnn23)cc1N[C@H]1C[C@H](CNC(=O)C2CCO2)C1 (stereo partly drawn)
Result: 2

Q: So what's the measured IC50 for this one? `CC(C)(O)CNC(=O)c1cnc(-c2ccc3cc(C#N)cnn23)cc1NC12CCC(O)(CC1)CC2`
Result: 7

Q: So what's the measured IC50 for this one? `CC(C)(O)[C@H](F)CNC(=O)c1cnc(-c2ccc3cc(C#N)cnn23)cc1Nc1ccc(N2CC3(COC3)C2)nc1`
Result: 1

Q: So what's the measured IC50 for this one? `CC(=O)Nc1nc(NC(=O)c2cnc(-c3ccc4cc(C#N)cnn34)cc2NC(C)C)cs1`
Result: 12

Q: So what's the measured IC50 for this one? `CC1(C(=O)N[C@H]2CC[C@H](Nc3cc(-c4ccc5cc(C#N)cnn45)ncc3C(=O)NC[C@@H](F)C(C)(C)O)CC2)CC1`
Result: 2

Q: So what's the measured IC50 for this one? `N#Cc1cnn2c(-c3cc(NC45CCC(O)(CC4)CC5)c(C(=O)NC[C@H]4C[C@@H](NC(=O)C5CC5)C4)cn3)ccc2c1`
Result: 1

Q: So what's the measured IC50 for this one? `CC(=O)OC12CCC(Nc3cc(-c4ccc5cc(C#N)cnn45)ncc3C(=O)NC[C@@H](F)C(C)(C)O)(CC1)CC2`
Result: 1

Q: So what's the measured IC50 for this one? `COc1cccc(Nc2cc(-c3ccc4cc(C#N)cnn34)ncc2C(=O)NC[C@@H](F)C(C)(C)O)c1`
Result: 1

Q: So what's the measured IC50 for this one? `CN(C)C(=O)C12CCC(Nc3cc(-c4ccc5cc(C#N)cnn45)ncc3C(=O)NC[C@@H](F)C(C)(C)O)(CC1)CC2`
Result: 1

====

testedSystem: IRAK4 enzyme (Homo sapiens (Human), UniProt Q9NWZ3)
experimentNotes: biochemical
Type: biochemical
condition: IRAK4 enzyme, TR-FRET (HTRF), 500 μM ATP
propertyName: IC50

Solved cases (5 shown):
[[record]]
smilestext = "CC(C)(O)[C@H](F)CNC(=O)c1cnc(-c2ccc3cc(C#N)cnn23)cc1Nc1ccc(OC2COC2)nc1"
recordedmeasurement = "21 nM"

[[record]]
smilestext = "CC(C)(O)[C@H](F)CNC(=O)c1cnc(-c2ccc3cc(C#N)cnn23)cc1Nc1ccc(N2CCOCC2)nc1"
recordedmeasurement = "< 1 nM"

[[record]]
smilestext = "C#CCNC(=O)c1cnc(-c2ccc3cc(C#N)cnn23)cc1NC12CCC(O)(CC1)CC2"
recordedmeasurement = "< 1 nM"

[[record]]
smilestext = "CN1CCN(C(=O)CNC(=O)c2cnc(-c3ccc4cc(C#N)cnn34)cc2NC23CCC(O)(CC2)CC3)CC1"
recordedmeasurement = "< 1 nM"

[[record]]
smilestext = "CC(C)(O)[C@H](F)CNC(=O)c1cnc(-c2ccc3cc(C#N)cnn23)cc1Nc1cnn(-c2ccccn2)c1"
recordedmeasurement = "1 nM"


Q: So what's the measured IC50 for this one? `CC(C)(O)[C@H](F)CNC(=O)c1cnc(-c2ccc3cc(C#N)cnn23)cc1NC12CCC(C(=O)NC34CC(C3)C4)(CC1)CC2`
Result: 2 nM

Q: So what's the measured IC50 for this one? `CC(=O)OC12CCC(Nc3cc(-c4ccc5cc(C#N)cnn45)ncc3C(=O)NC[C@@H](F)C(C)(C)OC(C)=O)(CC1)CC2`
Result: 5 nM

Q: So what's the measured IC50 for this one? `CC(C)(O)[C@H](F)CNC(=O)c1cnc(-c2ccc3cc(C#N)cnn23)cc1NC1CCC2(CC1)COC2`
Result: < 1 nM

====

Test system: TNFα
experimentNotes: cells
Type: cell-based, human
condition: Homo sapiens, Monocyte, LPS-stimulated human monocytes, TNFα content; read-out: EC50 TNF
Readings of pEC50 for the listed compounds
Scale: pEC50 equals -log10([C]), with [C] in mol/L.

Solved cases (2 shown):
[[record]]
compound = "Cn1cnc2cc(Nc3cc(-c4ccc5cc(C#N)cnn45)ncc3C(=O)NC[C@@H](F)C(C)(C)O)cnc21 [Example 782]"
testedsystem = "TNFα"
recordedmeasurement = 7.54

[[record]]
compound = "CN(C)S(=O)(=O)N[C@H]1CC[C@H](Nc2cc(-c3ccc4cc(C#N)cnn34)ncc2C(=O)NC[C@@H](F)C(C)(C)O)CC1 [Example 285]"
testedsystem = "TNFα"
recordedmeasurement = 6.78


Proceeding to the next compound to report its pEC50.
Q: So what's the measured pEC50 for this one? CC(=O)N[C@@H]1CC[C@@H](Nc2cc(-c3ccc4cc(C#N)cnn34)ncc2C(=O)NC[C@@H](F)C(C)(C)O)C1 [Example 306]
Result: 6.34

====

Readings of pIC50 for the listed compounds
testedSystem: IRAK4 enzyme (Homo sapiens (Human), UniProt Q9NWZ3)
experimentNotes: biochemical
Type: biochemical
condition: IRAK4 enzyme, TR-FRET, 500 μM ATP
Scale: pIC50 equals -log10([C]), with [C] in mol/L.

Solved cases (2 shown):
[[record]]
smilestext = "CC(C)(O)[C@H](F)CNC(=O)c1cnc(-c2ccc3cc(C#N)cnn23)cc1N[C@@H]1C[C@@H]2CN(S(C)(=O)=O)C[C@@H]2C1"
propertyname = "pIC50"
recordedmeasurement = 8.22

[[record]]
smilestext = "N#Cc1cnn2c(-c3cc(NC45CCC(O)(CC4)CC5)c(C(=O)NCC(=O)N4CCC(F)(F)C4)cn3)ccc2c1"
propertyname = "pIC50"
recordedmeasurement = 9.00


Q: Query the reported pIC50 for IRAK4 enzyme (Homo sapiens (Human), UniProt Q9NWZ3); item: `CC(C)Nc1cc(-c2ccc3cc(C#N)cnn23)ncc1C(=O)NC1COC1`
Result: 8.30

====

testedSystem: IRAK4 enzyme (Homo sapiens (Human), UniProt Q9NWZ3)
experimentNotes: biochemical
Format: biochemical
condition: IRAK4 enzyme, TR-FRET, 500 μM ATP
Readings of IC50 for the listed compounds
Report only the number, with the unit nM understood.

Solved cases (2 shown):
[[record]]
compound = "CC(C)(O)[C@H](F)CNC(=O)c1cnc(-c2ccc3cc(C#N)cnn23)cc1NC1CCN(CC(F)(F)F)CC1 [Example 329]"
propertyname = "IC50"
unitannotation = "nM"
recordedmeasurement = 1

[[record]]
compound = "CNC(=O)c1csc(Nc2cc(-c3ccc4cc(C#N)cnn34)ncc2C(=O)NC[C@@H](F)C(C)(C)O)n1 [Example 338]"
propertyname = "IC50"
unitannotation = "nM"
recordedmeasurement = 3


Q: So what's the measured IC50 for this one? CC(C)(O)[C@H](F)CNC(=O)c1cnc(-c2ccc3cc(C#N)cnn23)cc1NC1CCN(C2COC2)CC1 [Example 83]
Result: 1

Q: So what's the measured IC50 for this one? CCOc1nccc(Nc2cc(-c3ccc4cc(C#N)cnn34)ncc2C(=O)NC[C@@H](F)C(C)(C)O)n1 [Example 848]
Result: 2

Q: So what's the measured IC50 for this one? CC(C)(O)[C@H](F)CNC(=O)c1cnc(-c2ccc3cc(C#N)cnn23)cc1NC1CC2(CCC2)C1 [Example 99]
Result: 1

Q: So what's the measured IC50 for this one? CC1(F)CC(Nc2cc(-c3ccc4cc(C#N)cnn34)ncc2C(=O)NC[C@@H](F)C(C)(C)O)C1 (some centres unmarked) [Example 136]
Result: 2
